SYSTEM NAME: DAT (Rattus norvegicus)
Sequence (P23977 whole entry): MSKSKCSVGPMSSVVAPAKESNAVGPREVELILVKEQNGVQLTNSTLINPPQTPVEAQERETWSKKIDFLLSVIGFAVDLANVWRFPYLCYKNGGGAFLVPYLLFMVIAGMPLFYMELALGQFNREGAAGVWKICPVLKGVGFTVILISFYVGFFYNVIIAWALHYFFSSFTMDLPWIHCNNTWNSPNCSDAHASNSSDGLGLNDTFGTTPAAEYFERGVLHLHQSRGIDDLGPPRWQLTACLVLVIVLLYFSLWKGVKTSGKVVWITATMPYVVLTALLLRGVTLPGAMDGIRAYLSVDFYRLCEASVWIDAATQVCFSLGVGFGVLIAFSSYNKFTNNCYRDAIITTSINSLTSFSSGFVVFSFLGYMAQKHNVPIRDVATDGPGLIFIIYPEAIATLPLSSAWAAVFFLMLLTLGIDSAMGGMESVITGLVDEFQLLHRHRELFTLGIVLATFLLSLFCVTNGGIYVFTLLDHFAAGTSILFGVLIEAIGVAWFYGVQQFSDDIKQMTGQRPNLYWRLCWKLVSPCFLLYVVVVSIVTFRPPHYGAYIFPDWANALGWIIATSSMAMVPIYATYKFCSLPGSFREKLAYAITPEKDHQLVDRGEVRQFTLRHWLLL
TEST SUMMARY: [3H]dopamine uptake inhibition at DAT in rat brain synaptosomes
CONDITIONS USED: [3H]Dopamine uptake at DAT IC50, rat caudate synaptosomes, 5 nM [3H]dopamine; mean ± SD, N=3

COMPOUND: Cc1ccccc1C1OCCNC1C (stereo not shown)
SYSTEM NAME: DAT (Rattus norvegicus)
REPORTED RELATION: =
IC50 [µM]: 6.59

COMPOUND: Cc1cccc(C2OCCNC2C)c1 (stereo not shown)
SYSTEM NAME: DAT (Rattus norvegicus)
REPORTED RELATION: >
IC50 [µM]: 10

COMPOUND: Cc1ccc(C2OCCNC2C)cc1 (stereo not shown)
SYSTEM NAME: DAT (Rattus norvegicus)
REPORTED RELATION: =
IC50 [µM]: 1.93

COMPOUND: CC1NCCOC1c1ccccc1 (stereo not shown) [Phenmetrazine, 3-methyl-2-phenylmorpholine, reference compound]
SYSTEM NAME: DAT (Rattus norvegicus)
REPORTED RELATION: =
IC50 [µM]: 0.933

* * *

# key: entry, value: IC50
SYSTEM NAME: SERT (Rattus norvegicus)
Sequence (P31652 whole entry): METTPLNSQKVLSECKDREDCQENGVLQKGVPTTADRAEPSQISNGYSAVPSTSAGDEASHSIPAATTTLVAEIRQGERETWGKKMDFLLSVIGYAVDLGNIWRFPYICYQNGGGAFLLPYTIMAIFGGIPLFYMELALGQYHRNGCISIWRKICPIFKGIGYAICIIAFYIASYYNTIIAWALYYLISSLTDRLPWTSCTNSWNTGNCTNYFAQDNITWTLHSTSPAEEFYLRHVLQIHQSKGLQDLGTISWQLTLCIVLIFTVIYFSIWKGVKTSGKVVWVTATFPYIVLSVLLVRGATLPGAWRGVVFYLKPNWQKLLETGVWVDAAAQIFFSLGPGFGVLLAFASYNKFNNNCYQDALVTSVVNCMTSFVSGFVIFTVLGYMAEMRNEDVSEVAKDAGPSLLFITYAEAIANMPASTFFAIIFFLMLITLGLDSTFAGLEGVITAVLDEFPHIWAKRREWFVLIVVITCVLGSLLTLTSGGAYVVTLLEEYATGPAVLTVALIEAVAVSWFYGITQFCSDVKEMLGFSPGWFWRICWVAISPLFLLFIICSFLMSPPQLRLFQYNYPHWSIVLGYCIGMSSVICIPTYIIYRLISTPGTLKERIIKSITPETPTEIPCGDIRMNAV
TEST SUMMARY: [3H]5-HT uptake inhibition at SERT in rat brain synaptosomes

COMPOUND: Cc1cccc(C2OCCNC2C)c1 (stereo not shown) [3-MPM, 3-Methyl-2-(3-methylphenyl)morpholine]
UNIT: µM
REPORTED RELATION: >
IC50: 10
//
COMPOUND: CC1NCCOC1c1ccccc1 (stereo not shown) [Phenmetrazine, 3-methyl-2-phenylmorpholine, reference compound]
UNIT: µM
REPORTED RELATION: =
IC50: 3.57
//
COMPOUND: Cc1ccc(C2OCCNC2C)cc1 (stereo not shown) [4-MPM, 3-Methyl-2-(4-methylphenyl)morpholine]
UNIT: µM
REPORTED RELATION: =
IC50: 0.408
//
COMPOUND: Cc1ccccc1C1OCCNC1C (stereo not shown) [2-MPM, 3-Methyl-2-(2-methylphenyl)morpholine]
UNIT: µM
REPORTED RELATION: =
IC50: 4.01

* * *

SYSTEM NAME: NET (Rattus norvegicus, UniProt Q63380)
Sequence (Q63380 1-617): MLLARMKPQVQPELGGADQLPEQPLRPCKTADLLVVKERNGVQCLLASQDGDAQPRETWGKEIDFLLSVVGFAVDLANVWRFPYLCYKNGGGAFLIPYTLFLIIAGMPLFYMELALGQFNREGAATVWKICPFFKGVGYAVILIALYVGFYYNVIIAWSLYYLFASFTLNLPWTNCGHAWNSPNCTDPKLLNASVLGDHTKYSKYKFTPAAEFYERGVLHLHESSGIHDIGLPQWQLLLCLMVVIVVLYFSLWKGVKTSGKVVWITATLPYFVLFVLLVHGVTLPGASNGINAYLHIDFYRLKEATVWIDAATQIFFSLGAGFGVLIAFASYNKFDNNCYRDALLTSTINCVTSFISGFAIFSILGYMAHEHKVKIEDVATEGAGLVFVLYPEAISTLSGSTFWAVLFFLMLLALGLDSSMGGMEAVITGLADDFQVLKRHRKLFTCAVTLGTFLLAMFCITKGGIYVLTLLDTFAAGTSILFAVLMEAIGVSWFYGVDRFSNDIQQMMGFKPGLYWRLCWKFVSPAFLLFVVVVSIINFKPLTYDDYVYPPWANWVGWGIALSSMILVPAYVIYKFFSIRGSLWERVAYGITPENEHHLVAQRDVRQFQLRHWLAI
TEST SUMMARY: [3H]MPP+ release at NET in rat brain synaptosomes
Format: biochemical
CONDITIONS USED: read-out: Release at NET % Emax

MOLECULE: Cc1cccc(C2OCCNC2C)c1 (stereo not shown) [3-MPM, 3-Methyl-2-(3-methylphenyl)morpholine]
UNIT: %
Emax: 90
--
MOLECULE: Cc1ccc(C2OCCNC2C)cc1 (stereo not shown) [4-MPM, 3-Methyl-2-(4-methylphenyl)morpholine]
UNIT: %
Emax: 90
--
MOLECULE: Cc1ccccc1C1OCCNC1C (stereo not shown) [2-MPM, 3-Methyl-2-(2-methylphenyl)morpholine]
UNIT: %
Emax: 91
--
MOLECULE: CC1NCCOC1c1ccccc1 (stereo not shown) [Phenmetrazine, 3-methyl-2-phenylmorpholine, reference compound]
UNIT: %
Emax: 95

* * *

SYSTEM NAME: UniProtKB Q63380
TEST SUMMARY: [3H]norepinephrine uptake inhibition at NET in rat brain synaptosomes
CONDITIONS USED: [3H]Norepinephrine uptake at NET IC50, rat brain synaptosomes, 10 nM [3H]norepinephrine; mean ± SD, N=3
pIC50: −log10 of the molar value.
Recorded measurements of pIC50, one per entry
READOUT NAME: pIC50

MOLECULE: Cc1cccc(C2OCCNC2C)c1 (stereo not shown)
READOUT NAME: pIC50
RECORDED VALUE: 5.28

MOLECULE: Cc1ccccc1C1OCCNC1C (stereo not shown)
READOUT NAME: pIC50
RECORDED VALUE: 5.59

MOLECULE: CC1NCCOC1c1ccccc1 (stereo not shown) [Phenmetrazine, 3-methyl-2-phenylmorpholine, reference compound]
READOUT NAME: pIC50
RECORDED VALUE: 5.93

MOLECULE: Cc1ccc(C2OCCNC2C)cc1 (stereo not shown)
READOUT NAME: pIC50
RECORDED VALUE: 5.71

Value source: paper PMC7316143
